Test system: MT2
Procedure details: Tested for the antiviral activity against MT-2 cells infected with AZT resistant strain of HIV-1 (A012)
Type: functional, cell-based
Recorded conditions: Homo sapiens
Endpoint name: EC50 (µM)
Express it in µM; write the number only.

Item: CC(C)CCCC(C)[C@H]1CC[C@H]2[C@@H]3CCC4C[C@@H](CCC=C(c5cc(Cl)c(O)c(C(=O)O)c5)c5cc(Cl)c(O)c(C(=O)O)c5)CC[C@]4(C)[C@H]3CC[C@]12C (stereo partly specified) | EC50: 10

The reported numbers originate from ChEMBL document CHEMBL1150978.
